This collection of values is drawn from patent US5686486A.

# measurement.target: HIV-1 protease (Human immunodeficiency virus type 1 group M subtype B)
# assay.procedure: biochemical
# experimental.context: dose 10.000 uM

- compound: "CC(C)(C)OC(=O)N[C@@H](Cc1c[nH]cn1)C(=O)Nc1cccc(C(c2c(O)c3c(oc2=O)CCCCCC3)C2CC2)c1 (single isomer, unassigned) [Example 240]"
  measurement.target: "HIV-1 protease (Human immunodeficiency virus type 1 group M subtype B)"
  HIV-1 Protease % Inhib: "114.19%"
- compound: "CCCCOc1ccc(S(=O)(=O)Nc2cccc(C(c3c(O)c4c(oc3=O)CCCCCC4)C3CC3)c2)cc1 (stereo not shown) [Example 406]"
  measurement.target: "HIV-1 protease (Human immunodeficiency virus type 1 group M subtype B)"
  HIV-1 Protease % Inhib: "97.39%"
- compound: "Cc1cccc(Cl)c1S(=O)(=O)Nc1cccc(C(c2c(O)c3c(oc2=O)CCCCCC3)C2CC2)c1 (stereo not shown) [Example 287]"
  measurement.target: "HIV-1 protease (Human immunodeficiency virus type 1 group M subtype B)"
  HIV-1 Protease % Inhib: "92.75%"
- compound: "CCCC(c1cccc(NS(=O)(=O)c2ccc(C#N)cc2)c1)c1c(O)c2c(oc1=O)CCCCCC2 (single isomer, unassigned) [Example 439]"
  measurement.target: "HIV-1 protease (Human immunodeficiency virus type 1 group M subtype B)"
  HIV-1 Protease % Inhib: "96.45%"
- compound: "COCCC1CCCCc2c1oc(=O)c(C(c1ccccc1)C1CC1)c2O (stereo not shown) [Example 194]"
  measurement.target: "HIV-1 protease (Human immunodeficiency virus type 1 group M subtype B)"
  HIV-1 Protease % Inhib: "108.17%"
- compound: "O=c1oc2c(c(O)c1C(c1ccccc1)C1CC1)CCCCCC2CC1CCCO1 (single isomer, unassigned) [Example 171]"
  measurement.target: "HIV-1 protease (Human immunodeficiency virus type 1 group M subtype B)"
  HIV-1 Protease % Inhib: "109.98%"
- compound: "CCC(c1ccc(OCC(O)CO)cc1)c1c(O)c2ccccc2oc1=O (stereo not shown) [Example 100]"
  measurement.target: "HIV-1 protease (Human immunodeficiency virus type 1 group M subtype B)"
  HIV-1 Protease % Inhib: "< 10%"
